Protocol Text: Mouse PK, single oral gavage
Applied Conditions: mouse, in vivo, po, 0.3 mg/kg, Mouse Tmax, oral gavage, single dose 0.3 mg/kg
Reported Metric: Tmax (h)

[
  {
    "Compound": "CCC(=O)N1CCC(NC(=O)Nc2ccc(OC(F)(F)F)c(F)c2)CC1",
    "Reported Metric": "Tmax",
    "Result Value": 8
  },
  {
    "Compound": "CC(C)C(=O)N1CCC(NC(=O)Nc2ccc(OC(F)(F)F)c(F)c2)CC1",
    "Reported Metric": "Tmax",
    "Result Value": 5.9
  },
  {
    "Compound": "O=C(Nc1ccc(C(F)(F)F)cc1)NC1CCN(C(=O)C2CCCOC2)CC1 (centres unmarked)",
    "Reported Metric": "Tmax",
    "Result Value": 5.9
  },
  {
    "Compound": "Cc1occc1C(=O)N1CCC(NC(=O)Nc2ccc(OC(F)(F)F)cc2)CC1",
    "Reported Metric": "Tmax",
    "Result Value": 9
  },
  {
    "Compound": "O=C(Nc1ccc(OC(F)(F)F)cc1)NC1CCN(C(=O)C2CCCOC2)CC1 (centres unmarked)",
    "Reported Metric": "Tmax",
    "Result Value": 7.6
  },
  {
    "Compound": "Cc1ccoc1C(=O)N1CCC(NC(=O)Nc2ccc(OC(F)(F)F)cc2)CC1",
    "Reported Metric": "Tmax",
    "Result Value": 5.7
  },
  {
    "Compound": "O=C(Nc1ccc(OC(F)(F)F)c(F)c1)NC1CCN(C(=O)C2CC2)CC1",
    "Reported Metric": "Tmax",
    "Result Value": 7.6
  },
  {
    "Compound": "O=C(Nc1ccc(C(F)(F)F)cc1)NC1CCN(C(=O)C2(C(F)(F)F)CC2)CC1",
    "Reported Metric": "Tmax",
    "Result Value": 4.7
  },
  {
    "Compound": "O=C(Nc1ccc(OC(F)(F)F)c(F)c1)NC1CCN(C(=O)C2CCCOC2)CC1 (centres unmarked)",
    "Reported Metric": "Tmax",
    "Result Value": 6
  },
  {
    "Compound": "O=C(Nc1ccc(OC(F)(F)F)c(F)c1)NC1CCN(C(=O)[C@@H]2CCOC2)CC1",
    "Reported Metric": "Tmax",
    "Result Value": 3.7
  }
]

(I) O=C(O)CC1(CC(=O)N2CCC(NC(=O)Nc3ccc(C(F)(F)F)cc3)CC2)CCCCC1
(II) O=C(Nc1ccc(C(F)(F)F)cc1)NC1CCN(C(=O)C2=COCC2)CC1
Prompt: Look at I and II . Which one has the lower recorded Tmax number? Response format: the label of the selected entry.
Completion: II
(II: 4.1 h, I: 7.4 h)
